IC50 overview
Tested on: Human immunodeficiency virus 1
Assay: Inhibition of wild type HIV-1-IIIB strain replication in CEM-SS cells
Format: functional, organism-based
Settings: Human immunodeficiency virus 1, CEM-SS

CHEMICAL_STRUCTURE | IC50
CC(=O)Nc1c(O)ncc(C)c1Sc1cc(C)cc(C)c1 | 0.067 µM
CC(C)=CCN1Cc2cc(Cl)cc3[nH]c(=S)n(c23)C[C@@H]1C | > 10 µM
CCOC(=O)Nc1c(O)ncc(C)c1Sc1cc(C)cc(C)c1 | 7.5 µM
Cc1cccc(Sc2c(C)cnc(O)c2N)c1 | 1.4 µM
Cc1cnc(O)c([N+](=O)[O-])c1Sc1nc2ccccc2o1 | 5.5 µM

---

Target: Human immunodeficiency virus type 1 reverse transcriptase (Human immunodeficiency virus 1, UniProt Q72547)
pIC50: −log10 of the molar value.
pIC50 overview
OBSERVABLE: pIC50

CHEMICAL_STRUCTURE | MEASURED
Cc1cc(C)cc(Sc2c(C)cnc(O)c2[N+](=O)[O-])c1 | < 5.00
Cc1cccc(Sc2c(C)c[nH]c(=O)c2N)c1 | < 5.40
Cc1cccc(Sc2c(C)cnc(O)c2[N+](=O)[O-])c1 | < 5.00
CC(=O)Nc1c(O)ncc(C)c1Sc1cc(C)cc(C)c1 | < 5.40
CCC(=O)Nc1c(O)ncc(C)c1Sc1cc(C)cc(C)c1 | < 5.40
Cc1c(Sc2ccccc2)n(COCCO)c(=O)[nH]c1=O | < 5.22

---

Test system: Human immunodeficiency virus 1
Assay: Inhibition of wild type HIV-1-IIIB strain replication in CEM-SS cells
Assay type: functional, organism-based
Conditions: Human immunodeficiency virus 1, CEM-SS
pIC50: −log10 of the molar value.

CHEMICAL_STRUCTURE | pIC50
Cc1cc(C)cc(Sc2c(C)cnc(O)c2[N+](=O)[O-])c1 | 6.92
Cc1cnc(O)c(N)c1Sc1nc2ccccc2o1 | 5.10
